- Test system: ACHN renal
- protocolDetails: NCI tumour cell line growth inhibition, 48 h
Is TGI at least 30 µM? Then fulfilled. If not, not fulfilled.

- molecule: "COc1cc(C(=O)N2CCN(c3ccccn3)CC2)c(N)cc1OCc1ccccc1"
  className: "fulfilled"
- molecule: "CN(C)c1ccc(C2SCC(=O)N2c2nc3cc4sc(N5C(=O)CSC5c5ccc(N(C)C)cc5)nc4cc3s2)cc1 (stereo not given)"
  className: "fulfilled"
- molecule: "CCOC(=O)C(Cc1c(C=O)[nH]c2ccccc12)(NC(=O)c1ccccc1)C(=O)OCC"
  className: "fulfilled"
- molecule: "NC(=O)c1ncn2c1CNC(=O)C2"
  className: "fulfilled"
- molecule: "Nc1nc(N)c(-c2cccc(C(F)(F)F)c2)c(Cc2cccc(C(F)(F)F)c2)n1"
  className: "not fulfilled"
- molecule: "CCCCCCCCCCOC1C(C(O)CNCCCN(C)C)OC2OC3(CCCCC3)OC21 (stereo not given)"
  className: "not fulfilled"
- molecule: "CSc1nc2c(nc(N)n2C2OC(CO)C(O)C(O)C2O)c(=O)n1C (stereo not given)"
  className: "fulfilled"
- molecule: "CCOC(=O)C1=C(C)N=C2SC=C(c3ccccc3)N2[C@H]1c1cn[nH]c1-c1ccc(Cl)cc1"
  className: "not fulfilled"
- molecule: "CN1CCC(SC2Cc3cc(Cl)ccc3Sc3ccccc32)CC1 (stereo not given)"
  className: "not fulfilled"
- molecule: "S=c1ncc2n[nH]nc2[nH]1"
  className: "fulfilled"
